Taken from the METLIN SMRT retention time set (Domingo-Almenara et al. 2019).

- Protocol: gradient 5% acetonitrile 3 min, to 50% in 2 min, to 85% in 15 min, held 3 min, 100 µL/min
- Condition Summary: column: Zorbax Extend-C18 2.1 x 50 mm; eluents: water / acetonitrile, 0.1% formic acid
Record form. Attribute: RP-LC retention time. Fill in for each entry.
Hi! Could you send only the number? It should be in s, unit omitted.

[Q] Any idea what its RP-LC retention time is? The molecule is O=C(CCc1ccc2[nH]ccc2c1)N1CCN(c2ccccc2)CC1
[A] 856

[Q] Then what about the molecule CC1(C)CC(=O)c2cn(-c3ccc(F)cc3)c(=O)c(C(=O)NC3CCCC3)c2C1 ?
[A] 957

[Q] Then what about the molecule Cn1c(=O)oc2cc(-c3noc(-c4ccccc4)n3)ccc21 ?
[A] 1010

[Q] Then what about the molecule CN(C)S(=O)(=O)c1ccc(NC(=O)Cc2ccc(F)cc2)cc1 ?
[A] 780

[Q] Then what about the molecule CCOC(=O)c1noc2ncnc(NCCc3ccccc3)c12 ?
[A] 936

[Q] Then what about the molecule COc1ccc(C(C)NC(=O)C2=C3CCCN3c3ccc(F)cc3S2(=O)=O)cc1 (stereo not given) ?
[A] 899

[Q] Then what about the molecule O=C1C(c2ccncc2)N(Cc2ccccc2)C(=O)CN1c1ccccc1 (stereo not given) ?
[A] 684

[Q] Then what about the molecule Cc1cccc(-c2nc3ccccn3c2NC(=O)NCc2ccccc2)c1 ?
[A] 656

[Q] Then what about the molecule Cc1ccc(C)c(NC(=O)C2CCN(S(=O)(=O)c3cc(C(=O)N(C)C)cs3)CC2)c1 ?
[A] 790

[Q] Then what about the molecule CCOC(=O)C1CCC(CNC(=O)Nc2ccc(-c3nc(-c4ccc(C)cc4C)co3)cc2)CC1 (stereo not given) ?
[A] 1240

[Q] Then what about the molecule CC(C)OCCCNC(=O)c1ccc2c(=O)n(-c3ccccc3)c(N3CCCC3)nc2c1 ?
[A] 777

[Q] Then what about the molecule COc1ccc(Cl)cc1NC(=O)Nc1c(-c2ccncc2)nc2ccccn12 ?
[A] 642

[Q] Then what about the molecule CCOc1ccc(-c2nn3c(Cc4ccc(OC)cc4)nnc3s2)cc1 ?
[A] 1070

[Q] Then what about the molecule Cc1ccc(CNC(=O)C2CCCN(c3nccnc3Sc3ccc(C)cc3)C2)cc1 (stereo not given) ?
[A] 1090

[Q] Then what about the molecule CN1CCC(OC2CCN(C(=O)c3ccc(Cl)cc3)CC2)CC1 ?
[A] 601

[Q] Then what about the molecule CC1=C(c2ccc(Cl)cc2)S(=O)(=O)N=C1N1CCC(C(=O)NCCN2CCOCC2)CC1 ?
[A] 592

[Q] Then what about the molecule CCCc1c(C(=O)O)nnn1Cc1ccccc1 ?
[A] 746

[Q] Then what about the molecule CC1CCC(NC(=O)c2cn(-c3ccc(NC(=O)C4CC4)cn3)cn2)CC1 (stereo not given) ?
[A] 790

[Q] Then what about the molecule CCOc1ccccc1NC(=O)N1CCN(C(=O)N2C[C@H]3C[C@@H](C2)[C@H]2CCCC(=O)N2C3)CC1 ?
[A] 687

[Q] Then what about the molecule CC1CN=C2C=C(N3CCN(C(=O)CCc4ccccc4)CC3)N=CN21 (stereo not given) ?
[A] 620
